Value source: patent US20250152729A1

Exercise: state measured EC50 (nM), Fab-pHast internalisation into NCI-H929 for each of the binders provided.
- assayed.target: T1, human SEMA4A expressed on cells (UniProt ID Q9H3S1, isoform 1) (human, UniProt Q9H3S1 33-761)
- T1 sequence: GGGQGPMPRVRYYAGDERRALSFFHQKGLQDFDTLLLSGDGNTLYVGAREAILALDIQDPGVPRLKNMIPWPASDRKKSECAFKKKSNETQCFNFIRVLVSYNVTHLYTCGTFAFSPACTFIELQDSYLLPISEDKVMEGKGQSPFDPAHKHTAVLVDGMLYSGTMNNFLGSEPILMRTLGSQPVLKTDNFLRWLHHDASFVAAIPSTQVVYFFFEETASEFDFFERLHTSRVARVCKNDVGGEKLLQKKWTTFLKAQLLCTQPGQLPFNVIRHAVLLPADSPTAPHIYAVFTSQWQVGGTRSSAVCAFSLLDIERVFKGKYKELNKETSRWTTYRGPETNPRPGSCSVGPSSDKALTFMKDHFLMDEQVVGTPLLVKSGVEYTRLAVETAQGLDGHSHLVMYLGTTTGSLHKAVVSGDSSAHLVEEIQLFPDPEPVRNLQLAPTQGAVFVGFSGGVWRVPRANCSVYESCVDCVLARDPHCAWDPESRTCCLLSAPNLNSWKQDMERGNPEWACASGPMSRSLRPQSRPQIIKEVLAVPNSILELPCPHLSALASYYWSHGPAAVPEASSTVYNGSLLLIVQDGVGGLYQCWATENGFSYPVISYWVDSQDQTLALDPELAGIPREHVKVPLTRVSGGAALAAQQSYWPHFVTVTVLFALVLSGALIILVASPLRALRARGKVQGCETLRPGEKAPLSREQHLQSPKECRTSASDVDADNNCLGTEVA
- assay.procedure: cell-based or functional assay
Give bare numbers, in nM.

Query block: # lookup: EC50 (nM), Fab-pHast internalisation into NCI-H929 of 5Hg1-5Lg2 human Alya IgG1 conjugated to McMMAF (antibody, V domains shown, McMMAF on the engineered cysteines 239iCys and S442C (EU numbering) of the heavy constant region, Antibody-drug conjugate; human IgG1 Alya constant) VH: QVQLVQSGAEVKKPGASVKVSCKASGYTFTDYWMHWVRQAPGQGLEWMGAIDTSDSYTSYNQKFKGRVTMTRDTSTSTVYMELSSLRSEDTAVYYCARDYGNFYYYAMDYWGQGTLVTVSS VL: QAVVTQEPSLTVSPGGTVTLTCRSSTGAVTTSNYANWFQQKPGQAPRTLIYGTNNRAPWTPARFSGSLLGGKAALTLLGAQPEDEAEYYCALWYSNHWVFGGGTKLTVL
Result block: 0.75

// each listed binder needs a value for EC50 (nM), Fab-pHast internalisation into NCI-H929
1. 5Hg1-5Lg1 human Alya IgG1 conjugated to McMMAF (antibody, V domains shown, McMMAF on the engineered cysteines 239iCys and S442C (EU numbering) of the heavy constant region, Antibody-drug conjugate; human IgG1 Alya constant; also called 5Hg1/5Lg1-McMMAF) VH: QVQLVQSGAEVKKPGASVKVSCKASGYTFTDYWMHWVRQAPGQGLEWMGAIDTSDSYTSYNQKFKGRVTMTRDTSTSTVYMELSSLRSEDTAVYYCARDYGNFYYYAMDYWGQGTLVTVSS VL: QAVVTQEPSLTVSPGGTVTLTCRSSTGAVTTSNYANWFQQKPGQAPRTLIYGTNNRAPWTPARFSGSLLGGKAALTLSGAQPEDEAEYYCALWYSNHWVFGGGTKLTVL
2. mouse 5E3 as human Alya IgG1 conjugated to McMMAF (antibody, V domains shown, McMMAF on the engineered cysteines 239iCys and S442C (EU numbering) of the heavy constant region, Antibody-drug conjugate; human IgG1 Alya constant, drug-to-antibody ratio of four; also called Mouse 5E3-McMMAF) VH: QVQLQQPGAELVMPGASVKMSCKASGYTFTDYWMHWVKQRPGQGLEWIGAIDTSDSYTSYNQKFKGKATLTVDESSSTAYMQLSSLTSEDSAVYYCARDYGNFYYYAMDYWGQGTSVTVSS VL: QAVVTQESALTTSPGETVTLTCRSSTGAVTTSNYANWVQEKPDHLFTGLIGGTNNRAPGVPARFSGSLIGDKAALTITGAQTEDEAIYFCALWYSNHWVFGGGTKLTVL
3. C0120914 human Alya IgG1 conjugated to McMMAF (antibody, V domains shown, McMMAF on the engineered cysteines 239iCys and S442C (EU numbering) of the heavy constant region, Antibody-drug conjugate; human IgG1 Alya constant; also called C0120914-McMMAF) VH: QVQLQESGPGLVKPSETLSLTCTVSGGSVSSGRYDWSWIRQPPGKGLEWIGHIYYTGITDYNPSLRSRVTISADKPKNQFSLKLNSVTAADTAVYYCARGPFFDPWGQGTMVTVSS VL: QSVLTQPPSVSVAPGQTASLTCGANNIGSKSVQWYQQKPGQAPVLVVYDGSDRPSGIPDRFSGSSSENTATLTISRVEAGDEADYYCQLWDSVTDRPVFGGGTKVTVL

Result block:
1: 0.54; 2: 0.25; 3: 3.29
